# tested target: T1, recombinant human DKK1 (human, UniProt O94907 32-266)
# T1 construct: also called Dickkopf-1; rhDKK1
# T1 sequence: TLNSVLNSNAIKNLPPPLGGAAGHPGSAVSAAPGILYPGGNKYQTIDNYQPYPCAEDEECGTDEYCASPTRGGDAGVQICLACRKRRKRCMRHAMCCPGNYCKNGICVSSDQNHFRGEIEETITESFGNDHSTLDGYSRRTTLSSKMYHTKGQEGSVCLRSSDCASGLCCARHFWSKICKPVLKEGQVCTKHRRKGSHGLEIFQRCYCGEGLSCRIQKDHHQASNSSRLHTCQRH
# assay name: solution equilibrium titration (SET), ECL (BioVeris), Fab
quantity kind: Kd (pM)
Field: numeric (pM). Do not append units.

INSERT INTO results (binder, quantity_kind, measure_unit, numeric_value) VALUES
  ('MOR04948 (Fab, V domains shown) VH: QVQLVESGGGLVQPGGSLRLSCAASGFTFSSYWMSWVRQAPGKGLEWVSGISYSGSNTHYADSVKGRFTISRDNSKNTLYLQMNSLRAEDTAVYYCARMGIDLDYWGQGTLVTVSS VL: DIALTQPASVSGSPGQSITISCTGTSSDVGGFNYVSWYQQHPGKAPKLMIHDGSNRPSGVSNRFSGSKSGNTASLTISGLQAEDEADYYCQTWDSLSFFVFGGGTKLTVLG', 'Kd', 'pM', 57),
  ('MOR04947 (Fab, V domains shown) VH: QVQLVQSGAEVKKPGESLKISCKGSGYSFTNYYIGWVRQMPGKGLEWMGIIVPGTSYTIYSPSFQGQVTISADKSISTAYLQWSSLKASDTAMYYCARGIPFRMRGFDYWGQGTLVTVSS VL: DIVLTQPPSVSGAPGQRVTISCSGSSSNIGSSFVNWYQQLPGTAPKLLIGNNSNRPSGVPDRFSGSKSGTSASLAITGLQSEDEADYYCASFDMGSPNVVFGGGTKLTVLG', 'Kd', 'pM', 32),
  ('MOR04945 (Fab, V domains shown) VH: QVQLVESGGGLVQPGGSLRLSCAASGFTFSSYWMSWVRQAPGKGLEWVSVISSDSSSTYYADSVKGRFTISRDNSKNTLYLQMNSLRAEDTAVYYCARHGIDFDHWGQGTLVTVSS VL: DIALTQPASVSGSPGQSITISCTGTSSDLGGYNYVSWYQQHPGKAPKLMIYDVNNRPSGVSNRFSGSKSGNTASLTISGLQAEDEADYYCQTYDQIKLSAVFGGGTKLTVLG', 'Kd', 'pM', 69);

-- ask Could you tell me which Kd is on file for MOR04907 (Fab, V domains shown) VH: QVQLVESGGGLVQPGGSLRLSCAASGFTFNNYGMTWVRQAPGKGLEWVSGISGSGSYTYYADSVKGRFTISRDNSKNTLYLQMNSLRAEDTAVYYCARTIYMDYWGQGTLVTVSS VL: DIVLTQSPATLSLSPGERATLSCRASQNLFSPYLAWYQQKPGQAPRLLIYGASNRATGVPARFSGSGSGTDFTLTISSLEPEDFAVYYCQQYLSLPTTFGQGTKVEIKR ?
-- reply 114
